Where do the numbers come from? From patent US10513518B2.

target: hROMK (hKir1.1) (Homo sapiens (Human)); test: Thallium Flux Assay (ROMK channel functional thallium flux assay, FLIPR-Tetra); conditions: HEK293 cells stably expressing hROMK (hKir1.1); 30 min incubation with test compound
Sequence (P48048 whole entry): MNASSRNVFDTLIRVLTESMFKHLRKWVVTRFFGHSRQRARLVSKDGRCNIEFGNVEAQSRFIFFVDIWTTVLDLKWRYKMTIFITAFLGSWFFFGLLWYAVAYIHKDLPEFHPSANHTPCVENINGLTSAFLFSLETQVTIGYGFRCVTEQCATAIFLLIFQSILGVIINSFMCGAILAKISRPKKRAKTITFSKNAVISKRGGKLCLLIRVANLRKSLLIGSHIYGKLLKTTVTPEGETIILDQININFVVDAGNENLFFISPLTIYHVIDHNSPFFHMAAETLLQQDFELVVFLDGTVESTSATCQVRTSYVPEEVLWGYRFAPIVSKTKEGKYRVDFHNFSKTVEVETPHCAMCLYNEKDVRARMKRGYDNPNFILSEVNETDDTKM
Listed compounds paired with reported pIC50
// pIC50: -log10(molar conc.)

Use these answered entries as a reference point.
>  <Compound>
CC1=C(N2CCC3(CCN(C[C@H](O)c4ccc5c(c4C)COC5=O)CC3)C2=O)CCC1=O

>  <Measured Attribute>
pIC50

>  <Meas Value>
7.21

$$$$
>  <Compound>
CC1=C(N2CCC3(CCN(C[C@H](O)c4ccc(-n5cnnn5)nc4)CC3)C2=O)CCC1=O

>  <Measured Attribute>
pIC50

>  <Meas Value>
6.93

$$$$
>  <Compound>
CC1=C(N2CCC3(CCN(CC(O)c4ccc(-n5cnnn5)cc4C)CC3)C2=O)CCC1=O (stereo not shown) [Example 26]

>  <Measured Attribute>
pIC50

>  <Meas Value>
7.06

$$$$

Supply reported pIC50 belonging to this compound: Cc1c([C@@H](O)CN2CCC3(CC2)CCN(C2=CS(=O)(=O)CC2)C3=O)ccc2c1COC2=O
6.56
